Examples of binders with documented log10 of koff follow.
# System: T1, Cynomolgus monkey serum albumin (cynomolgus monkey, UniProt A2V9Z4 25-608)
# T1 construct: bought; immobilised on a CM5 chip by amine coupling; also called Cyno SA
# Measurement protocol: SPR, SA on chip, VHH 300 nM, 25 C
Test readout: log10 of koff (log10 of the value in s⁻¹)

Binder	Numeric value
VHH moiety 39 (MC6.1C90.43) (VHH) VHH: EVQLLESGGGLVQPGGSLRLSCAASGRYIDETAVAWFRQAPGKGREFVAGIGGGVDITYYADSVKGRFTISRDNSKNTLYLQMNSLRPEDTAVYYCGARPGRPLITSKVADLYPYWGQGTLVTVSS	-3.22
VHH moiety 18 (MC6.1C22-R102Q) (VHH) VHH: EVQLLESGGGLVQPGGSLRLSCAASGRYIDETAVAWFRQAPGKEREFVAGIGGGVDITYYADSVKGRFTISRDNSKNTLYLQMNSLRPEDTAVYYCAARPGQPLITSKVADLYPYWGQGTLVTVSS	-2.14
VHH moiety 40 (MC6.1C95.43) (VHH) VHH: EVQLLESGGGLVQPGGSLRLSCAASGRYIDETAVAWFRQAPGKGREFVAGIGGGVDITYYADSVKGRFTISRDNSKNTLYLQMNSLRPEDTAVYYCGTRPGRPLITSKVADLYPYWGQGTLVTVSS	-3.14
VHH moiety 16 (MC6.1C22-Y59T) (VHH) VHH: EVQLLESGGGLVQPGGSLRLSCAASGRYIDETAVAWFRQAPGKEREFVAGIGGGVDITTYADSVKGRFTISRDNSKNTLYLQMNSLRPEDTAVYYCAARPGRPLITSKVADLYPYWGQGTLVTVSS	-1.82
VHH moiety 8 (MC6.1C22-G26Y) (VHH) VHH: EVQLLESGGGLVQPGGSLRLSCAASYRYIDETAVAWFRQAPGKEREFVAGIGGGVDITYYADSVKGRFTISRDNSKNTLYLQMNSLRPEDTAVYYCAARPGRPLITSKVADLYPYWGQGTLVTVSS	-2.52
VHH moiety 19 (MC6.1C22-R102S) (VHH) VHH: EVQLLESGGGLVQPGGSLRLSCAASGRYIDETAVAWFRQAPGKEREFVAGIGGGVDITYYADSVKGRFTISRDNSKNTLYLQMNSLRPEDTAVYYCAARPGSPLITSKVADLYPYWGQGTLVTVSS	-2.14
VHH moiety 21 (MC6.1C22-P103Q) (VHH) VHH: EVQLLESGGGLVQPGGSLRLSCAASGRYIDETAVAWFRQAPGKEREFVAGIGGGVDITYYADSVKGRFTISRDNSKNTLYLQMNSLRPEDTAVYYCAARPGRQLITSKVADLYPYWGQGTLVTVSS	-1.85
